Test: qHTS assay to identify small molecule antagonists of the estrogen related receptor (ERR) signaling pathway from Tox21 library - cell viability counter screen (AID 1224834); note: nearly all actives have a fitted effect of over 30% in size
Details: ERR reporter cells viability, CellTiter-Fluor, 17.5 h; series mostly up to 92.4 µM
Records with an inconclusive call do not appear. Active and inactive are the calls of the source. Calls come from the whole dose curve; as a rule, active = well fitted cell-killing curve with a large enough effect in the repeat runs; inconclusive = weak or mixed curves; inactive = flat fitted curve, though single readings scatter.
Possible outcomes: active, inactive

> print(dat)
                                    compound  class.assignment
 1                         CCCC(=O)OC(=O)CCC          inactive
 2                    O=C1CC[C@@H](C(=O)O)N1          inactive
 3         Cc1ccc(NC(=O)N(C)C)cc1NC(=O)N(C)C          inactive
 4         CCOC(=O)c1ccc(NC(=O)CN2CCCCC2)cc1          inactive
 5  COC(=O)CC(C(C)=O)C(=O)OC (stereo not drawn)          inactive
 6       Cc1ccc(S(=O)(=O)NC(=O)NC2CCCCC2)cc1          inactive
 7         CC(=O)N[C@@H](Cc1ccc(O)cc1)C(=O)O          inactive
 8                        O=P(O)(O)Oc1ccccc1          inactive
 9  O=c1[nH][nH]c(=O)c2cc([N+](=O)[O-])ccc12          inactive
10  COc1ccc(-c2cc(C(F)F)nn2-c2ccc(S(N)(=O)=O)cc2)cc1F          inactive
11                O=[N+]([O-])c1ccc2ncccc2c1          inactive
12                     c1ccc(CCCc2ccncc2)cc1          inactive
13   CNCc1ccc(NC(=O)c2c[nH]c3c2C(=O)CCC3)cc1          inactive
14  CC(CN(CCN(CC(C)OCCO)CC(C)OCCO)CC(C)OCCO)OCCO (stereo not drawn)          inactive
15  O=c1[nH]c2cc(C(F)(F)F)c(N3CCOCC3)cc2n(CP(=O)(O)O)c1=O          inactive
16             O=C(Oc1ccccc1)c1ccc2ccccc2c1O          inactive
17  CCO[Si](C)(CCCOCC1CO1)OCC (stereo not drawn)          inactive
18                 O=C1NC(=O)c2cccc3cccc1c23          inactive
19                  O=C(C(=O)c1ccco1)c1ccco1          inactive
20         CC1CCc2nccnc21 (stereo not drawn)          inactive
21  COc1cc(NC(C)CCCN)c2ncccc2c1 (stereo not drawn)          inactive
22                  Cc1cc([N+](=O)[O-])ccc1N            active
23                             COc1ccc(C)cc1          inactive
24  CC(C(=O)O)c1ccc(C(=O)c2cccs2)cc1 (stereo not drawn)          inactive
25                         Cc1c[nH]c2ccccc12          inactive
26                     CCCCOCCOC(=O)c1cccnc1          inactive
27                        CC(C)c1ccc(C#N)cc1          inactive
28          CC(C)COC(=O)COc1cc(Cl)c(Cl)cc1Cl          inactive

Values compiled from PubChem BioAssay (Tox21).
